experiment: Stability in human liver microsome; details: without coenzyme, 2 μM, 37° C., 30 minutes
Strictly below 40% in Percentage of the compound remaining in human liver microsome: label 1. Otherwise: label 0.

Some solved entries appear below for comparison.
# MOLECULE, ASSIGNED_CATEGORY
records = [
    ("O=C(CCCCCCCO)OCOc1ccc([N+](=O)[O-])c2cccnc12", "label 1"),
    ("CC(=O)OC(C)Oc1ccc([N+](=O)[O-])c2cccnc12 (centres unmarked) [Compound 47, 1-(5-nitroquinolin-8-yloxy)ethyl acetate]", "label 1"),
    ("CN(CC(=O)OCc1cccnc1N(C)C(=O)OCOc1ccc([N+](=O)[O-])c2cccnc12)C(=O)C(C)(C)C", "label 0"),
    ("CCC(NC(=O)OCOc1ccc([N+](=O)[O-])c2cccnc12)C(=O)OC (centres unmarked)", "label 1"),
    ("CC(C)(C)OP(=O)(OCOc1ccc([N+](=O)[O-])c2cccnc12)OC(C)(C)C", "label 0"),
    ("COC(=O)CN(C)C(=O)Oc1ccc([N+](=O)[O-])c2cccnc12", "label 1"),
]

Prompt line: Given `O=C(OCOc1ccc([N+](=O)[O-])c2cccnc12)N1CCOCC1` , is recorded Percentage of the compound remaining in human liver microsome strictly lower than 40%?
Response line: label 0

Prompt line: Field entry: `CC(C)(C)OC(=O)N[C@@H](Cc1ccccc1)C(=O)OCOc1ccc([N+](=O)[O-])c2cccnc12`
Response line: label 1

Prompt line: Field entry: `CCC(CC)C(=O)OCOc1ccc([N+](=O)[O-])c2cccnc12`
Response line: label 1

Prompt line: Field entry: `CC(C)(C)OC(=O)NCCCCCCC(=O)OCOc1ccc([N+](=O)[O-])c2cccnc12`
Response line: label 1

Prompt line: Field entry: CCC(CC)C(=O)OC(C)Oc1ccc([N+](=O)[O-])c2cccnc12 (centres unmarked)
Response line: label 1

Prompt line: Field entry: `CC(C)C(=O)OCOc1ccc([N+](=O)[O-])c2cccnc12`
Response line: label 1

Prompt line: Field entry: `CCC(=O)OCOc1ccc([N+](=O)[O-])c2cccnc12`
Response line: label 1

Prompt line: Field entry: `O=C(CCCCC(=O)OCOc1ccc([N+](=O)[O-])c2cccnc12)OCOc1ccc([N+](=O)[O-])c2cccnc12`
Response line: label 1

Prompt line: Field entry: CN(C)C(=O)Oc1ccc([N+](=O)[O-])c2cccnc12 [Compound 78, 5-nitroquinolin-8-yl dimethylcarbamate]
Response line: label 0

Prompt line: Field entry: CN(CC(O)CO)C(=O)OCOc1ccc([N+](=O)[O-])c2cccnc12 (centres unmarked)
Response line: label 0

* * *

assay: Determination of water solubility in phosphate buffer; assay type: physicochemical; details: aqueous buffer, thermodynamic from solid; phosphate buffer pH 7.4, room temperature, 24 hours
For each entry below, report its solubility at 24 h value.
Answers are plain numbers, in µg/mL.

Observe how each entry below is paired with its result.
# COMPOUND, READING_UNIT, OBSERVED
records = [
    ("CCCOC(=O)N1CCC[C@H]1C(=O)OCOc1ccc([N+](=O)[O-])c2cccnc12 [Compound 18]", "µg/mL", 132),
    ("CCC(CC)C(=O)OCOc1ccc([N+](=O)[O-])c2cccnc12 [Compound 5]", "µg/mL", 13),
]

Here are 3 compounds. What values of solubility at 24 h were reported for them?
1. CC(=O)OC(C)Oc1ccc([N+](=O)[O-])c2cccnc12 (stereo not drawn) [Compound 47, 1-(5-nitroquinolin-8-yloxy)ethyl acetate]
2. CC(C)C(=O)N1CCC[C@@H]1C(=O)OCOc1ccc([N+](=O)[O-])c2cccnc12 [Compound 23]
3. O=C(CN1CCOCC1)OCOc1ccc([N+](=O)[O-])c2cccnc12 [Compound 36]

Response line:
285
818
298

* * *

Assay: Pharmacokinetics assay in dog (nitroxoline concentration in plasma after single intravenous or oral administration)
Assay type: in vivo, beagle dog
Details: nitroxoline in beagle dog plasma, oral administration 0.1 mmol/kg
Experimental: Nitroxoline is mainly metabolized by the phase II metabolism in liver with a fast metabolism rate, so it has a short half-life in the body. The present invention modified its structure and 13 compounds of formula (I) were obtained through chemical synthesis. […] Solution for standard curve was formulated. […] The pharmacokinetic parameters were calculated by the WinNonlin V 6.2 non-compartmental model.
METRIC_NAME: AUC0-inf (ng*hmL^−1)
Numbers only, in ng*hmL^−1.

# COMPOUND, READING_UNIT, AUC0-inf
rows = [
    ("CCC(CC)C(=O)OC(C)Oc1ccc([N+](=O)[O-])c2cccnc12 (stereo not shown) [Compound 51]", "ng*hmL^−1", 2474),
]

Here are 3 compounds. What values of AUC0-inf were reported for them?
1. O=[N+]([O-])c1ccc(O)c2ncccc12 [Nitroxoline]
2. CCC(CC)C(=O)OCOc1ccc([N+](=O)[O-])c2cccnc12 [Compound 5]
3. CC(C)C(=O)N1CCC[C@H]1C(=O)OCOc1ccc([N+](=O)[O-])c2cccnc12 [Compound 20]

Response line:
1. 4780
2. 1760
3. 8750

* * *

assay: Stability in human plasma; settings: 37° C., 15 minutes
METRIC_NAME: Percentage of the compound remaining in plasma (%)
Give bare numbers, in %.

Observe how each entry below is paired with its result.
# COMPOUND, OBSERVED
rows = [
    ("C[C@@H]1CN(C(=O)OCOc2ccc([N+](=O)[O-])c3cccnc23)C[C@H](C)O1", 102.3),
    ("CC(C)(C)C(=O)OCOc1ccc([N+](=O)[O-])c2cccnc12 [Compound 4, (5-nitroquinolin-8-yloxy)methyl pivalate]", 80.9),
    ("CN(CC(O)CO)C(=O)OCOc1ccc([N+](=O)[O-])c2cccnc12 (centres unmarked)", 95.6),
    ("COC(=O)CN(C)C(=O)Oc1ccc([N+](=O)[O-])c2cccnc12", 99.8),
    ("COC(=O)[C@H](Cc1ccccc1)NC(=O)OCOc1ccc([N+](=O)[O-])c2cccnc12", 95.2),
]

Here are 3 compounds. What values of Percentage of the compound remaining in plasma were reported for them?
1. CCC(CC)C(=O)OCOc1ccc([N+](=O)[O-])c2cccnc12
2. CN1CCN(C(=O)OCOc2ccc([N+](=O)[O-])c3cccnc23)CC1
3. CCC(NC(=O)OCOc1ccc([N+](=O)[O-])c2cccnc12)C(=O)OC (centres unmarked)

Response line:
1. 68.5
2. 97.5
3. 108.6

* * *

For each entry below, report its Percentage of the compound remaining in rat liver microsome value.
assay: Stability in rat liver microsome; conditions: without coenzyme, 2 μM, 37° C., 30 minutes
Numbers only, in %.

# COMPOUND, READING_UNIT, OBSERVED
measured = [
    ("COC(=O)CNC(=O)OCOc1ccc([N+](=O)[O-])c2cccnc12", "%", 54.77),
]

Here are 7 compounds. What values of Percentage of the compound remaining in rat liver microsome were reported for them?
1. CC(C)(C)OP(=O)(OCOc1ccc([N+](=O)[O-])c2cccnc12)OC(C)(C)C
2. CCC(CC)C(=O)OCOc1ccc([N+](=O)[O-])c2cccnc12
3. CCC(C)C(C(=O)OC)N(C)C(=O)OCOc1ccc([N+](=O)[O-])c2cccnc12 (centres unmarked)
4. CC(=O)OC(C)Oc1ccc([N+](=O)[O-])c2cccnc12 (centres unmarked) [Compound 47, 1-(5-nitroquinolin-8-yloxy)ethyl acetate]
5. CC(=O)N(C)CC(=O)OCc1cccnc1N(C)C(=O)OCOc1ccc([N+](=O)[O-])c2cccnc12
6. CC(=O)OCOc1ccc([N+](=O)[O-])c2cccnc12 [Compound 1, (5-nitroquinolin-8-yloxy)methyl acetate]
7. O=C(OCOc1ccc([N+](=O)[O-])c2cccnc12)N1CCOCC1

Response line:
[96.79, 1.10, 62.17, 0.02, 59.38, 0.27, 90.84]

* * *

assay: Stability in rat liver microsome; conditions: with coenzyme, 2 μM, 37° C., 30 minutes
METRIC_NAME: Percentage of the compound remaining in rat liver microsome (%)
Numbers only, in %.

Observe how each entry below is paired with its result.
# COMPOUND, OBSERVED
measured = [
    ("CN(CC(O)CO)C(=O)OCOc1ccc([N+](=O)[O-])c2cccnc12 (stereo not shown)", 101.34),
    ("CC(C)(C)OP(=O)(OCOc1ccc([N+](=O)[O-])c2cccnc12)OC(C)(C)C", 94.34),
    ("CCC(=O)OC(C)Oc1ccc([N+](=O)[O-])c2cccnc12 (stereo not shown)", 0.06),
    ("O=C(CCCCCCCO)OCOc1ccc([N+](=O)[O-])c2cccnc12", 0.02),
    ("O=C(CCCCC(=O)OCOc1ccc([N+](=O)[O-])c2cccnc12)OCOc1ccc([N+](=O)[O-])c2cccnc12", 0.00),
]

Here are 3 compounds. What values of Percentage of the compound remaining in rat liver microsome were reported for them?
1. CN(C)C(=O)Oc1ccc([N+](=O)[O-])c2cccnc12 [Compound 78, 5-nitroquinolin-8-yl dimethylcarbamate]
2. CC(=O)OC(C)Oc1ccc([N+](=O)[O-])c2cccnc12 (stereo not shown) [Compound 47, 1-(5-nitroquinolin-8-yloxy)ethyl acetate]
3. CCC(=O)OCOc1ccc([N+](=O)[O-])c2cccnc12

Response line:
2.40
0.01
0.52

Here are 2 compounds. What values of Percentage of the compound remaining in rat liver microsome were reported for them?
1. CC(C)OC(=O)[C@H](C)NP(=O)(OCOc1ccc([N+](=O)[O-])c2cccnc12)Oc1ccccc1 (stereo partly shown)
2. CCC(C)C(C(=O)OC)N(C)C(=O)OCOc1ccc([N+](=O)[O-])c2cccnc12 (stereo not shown)

Response line:
[0.00, 0.45]
